This listing pairs compounds with measured cytotoxicity at 24 h, 100 µM.
- Assay comment: MTT assay
- Type: cell-based, human
- Assay conditions: human, MCF-7 breast cancer cells, % Cytotoxicity ± SD, MCF-7, 100 μM
State just the number; it will be interpreted in %.

| Compound | Quantity measured | Unit abbrev | Test result |
| --- | --- | --- | --- |
| O=C(Nc1c(F)cccc1F)c1ccc2ncccc2c1 [Compound 4d] | cytotoxicity at 24 h, 100 µM | % | 48 |
| Cc1ccc(CNC(=O)c2ccc3ncccc3c2)cc1 [Compound 4c] | cytotoxicity at 24 h, 100 µM | % | 42.2 |
| O=C(Nc1ccccn1)c1ccc2ncccc2c1 [Compound 4g, N-(pyridin-2-yl)quinoline-6-carboxamide] | cytotoxicity at 24 h, 100 µM | % | 47.4 |
| O=C(NCc1ccc(F)cc1)c1ccc2ncccc2c1 [Compound 4b] | cytotoxicity at 24 h, 100 µM | % | 25.1 |

[in] Tell me the measured cytotoxicity at 24 h, 100 µM of COc1ccc(CNC(=O)c2ccc3ncccc3c2)c(OC)c1 [Compound 4i] , please.
[out] 41.5

[in] Same thing, different compound: O=C(NCc1ccc(Cl)cc1)c1ccc2ncccc2c1 [Compound 4a]
[out] 37

[in] Same thing, different compound: O=C(Nc1ccccc1I)c1ccc2ncccc2c1 [Compound 4h, N-(2-iodophenyl)quinoline-6-carboxamide]
[out] 49.7

[in] Same thing, different compound: Cc1ccc(F)cc1NC(=O)c1ccc2ncccc2c1 [Compound 4l]
[out] 39.5

[in] Same thing, different compound: O=C(Nc1ccc(I)cc1)c1ccc2ncccc2c1 [Compound 4k, N-(4-Iodophenyl)quinoline-6-carboxamide]
[out] 56.9

[in] Same thing, different compound: O=C(Nc1ccc(F)cc1F)c1ccc2ncccc2c1 [Compound 4e]
[out] 14.6

[in] Same thing, different compound: O=C(NCc1ccc(Cl)cc1Cl)c1ccc2ncccc2c1 [Compound 4j]
[out] 55
